Provenance of the data: the supplement of paper PMC10065799

tgt: Grb2 SH2 (UniProt P62993)
Sequence (P62993 whole entry, looked up): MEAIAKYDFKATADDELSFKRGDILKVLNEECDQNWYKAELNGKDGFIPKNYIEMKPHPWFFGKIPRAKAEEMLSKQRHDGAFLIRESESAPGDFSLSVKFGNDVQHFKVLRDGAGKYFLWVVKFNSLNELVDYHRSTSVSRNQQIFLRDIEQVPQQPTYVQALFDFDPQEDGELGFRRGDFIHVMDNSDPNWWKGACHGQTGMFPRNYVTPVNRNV
run description: SH2 binding enrichment of the phosphorylated peptide, bacterial display (enrichment ratio); higher = better substrate or ligand; peptides without Tyr show the background

biosequence: DFFDLYGGEKL [PTPN11_Y66_F71L_YF]
SH2 binding enrichment: 1.02

biosequence: DLVSEYQQYQD [TUBB3_Y422]
SH2 binding enrichment: 0.989

biosequence: LKLWDYSRGRC [WDR5B_Y239]
SH2 binding enrichment: 0.99

biosequence: SIKDKYVTVLY [KCNH2_Y611_A614V]
SH2 binding enrichment: 0.99

biosequence: LGQRIYQYIQS [DYRK1B_Y271]
SH2 binding enrichment: 1.02

====

tgt: EPHB1 (UniProt P54762)
Sequence (P54762 whole entry, looked up): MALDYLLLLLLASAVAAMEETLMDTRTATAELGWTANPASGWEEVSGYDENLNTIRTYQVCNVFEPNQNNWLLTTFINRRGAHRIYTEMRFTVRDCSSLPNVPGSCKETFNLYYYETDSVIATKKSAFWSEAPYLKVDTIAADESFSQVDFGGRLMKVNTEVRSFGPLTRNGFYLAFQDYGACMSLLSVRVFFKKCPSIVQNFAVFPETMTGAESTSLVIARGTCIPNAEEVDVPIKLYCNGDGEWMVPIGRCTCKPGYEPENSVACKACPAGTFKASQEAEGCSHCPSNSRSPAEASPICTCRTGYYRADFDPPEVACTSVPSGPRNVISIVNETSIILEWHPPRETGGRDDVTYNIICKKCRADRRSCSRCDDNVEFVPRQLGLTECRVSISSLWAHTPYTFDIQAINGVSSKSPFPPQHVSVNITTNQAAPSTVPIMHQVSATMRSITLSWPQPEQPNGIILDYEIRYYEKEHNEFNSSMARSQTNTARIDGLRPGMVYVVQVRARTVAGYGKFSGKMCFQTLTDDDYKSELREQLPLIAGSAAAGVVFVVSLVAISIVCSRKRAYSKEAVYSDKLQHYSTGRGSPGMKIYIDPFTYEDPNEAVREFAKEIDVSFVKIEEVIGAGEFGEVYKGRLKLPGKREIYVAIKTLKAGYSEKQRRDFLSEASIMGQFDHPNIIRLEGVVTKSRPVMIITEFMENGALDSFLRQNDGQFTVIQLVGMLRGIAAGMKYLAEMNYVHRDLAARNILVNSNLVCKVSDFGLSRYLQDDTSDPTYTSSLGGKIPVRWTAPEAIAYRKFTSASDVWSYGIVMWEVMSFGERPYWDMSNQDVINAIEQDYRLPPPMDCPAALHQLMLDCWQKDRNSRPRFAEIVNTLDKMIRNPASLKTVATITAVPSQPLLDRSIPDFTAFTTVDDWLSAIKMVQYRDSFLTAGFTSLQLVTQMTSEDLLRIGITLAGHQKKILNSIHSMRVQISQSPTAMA
run description: phosphorylation enrichment, bacterial display (enrichment ratio); higher = better substrate or ligand; peptides without Tyr show the background
Categories are assigned from the measured phosphorylation enrichment using these intervals: bucket A (below 0.5), bucket B (0.5 to below 0.8), bucket C (0.8 or more)

biosequence: GISDEYHVIRR [GCDH_Y398_H403R]
cat: bucket B

biosequence: KIIATYRLCSE [DNAH3_Y1586_V1583I]
cat: bucket B

biosequence: LTFPDYLPCSV [SAG_Y129]
cat: bucket C

biosequence: GTQGSYLLSRK [UGT3A1_Y123_C121G]
cat: bucket A

biosequence: QSSALYEDRFL [ASS1_Y83_YF]
cat: bucket C

biosequence: PTTKTYFRHFD [HBA1_Y43_P45R]
cat: bucket B

biosequence: LTDTVYSSSSA [OR4C12_Y71_I67T]
cat: bucket A

biosequence: TNYRFYLRSLE [MTM1_Y71_L70F]
cat: bucket B

biosequence: FHKALYTVRTY [PDE6C_Y266_S270T]
cat: bucket B

biosequence: FPHVISARLWR [SMAD4_Y95_Y95S]
cat: bucket A

biosequence: NDFGNYSNQSS [HNRNPA1_Y318_N319S]
cat: bucket C

biosequence: TGDVQYRSSVR [FREM2_Y2158]
cat: bucket A

biosequence: KPYRVYCDMNT [FGB_Y269]
cat: bucket C

biosequence: SMEGLYSSAQD [CLIC5_Y111_T114A]
cat: bucket C

biosequence: AQMAMYFWEMS [TRPM4_Y577_G582S]
cat: bucket C

biosequence: TYGNLYGSRKQ [YIPF7_Y59_A54T]
cat: bucket A

====

tgt: MERTK (UniProt Q12866)
Sequence (Q12866 whole entry, looked up): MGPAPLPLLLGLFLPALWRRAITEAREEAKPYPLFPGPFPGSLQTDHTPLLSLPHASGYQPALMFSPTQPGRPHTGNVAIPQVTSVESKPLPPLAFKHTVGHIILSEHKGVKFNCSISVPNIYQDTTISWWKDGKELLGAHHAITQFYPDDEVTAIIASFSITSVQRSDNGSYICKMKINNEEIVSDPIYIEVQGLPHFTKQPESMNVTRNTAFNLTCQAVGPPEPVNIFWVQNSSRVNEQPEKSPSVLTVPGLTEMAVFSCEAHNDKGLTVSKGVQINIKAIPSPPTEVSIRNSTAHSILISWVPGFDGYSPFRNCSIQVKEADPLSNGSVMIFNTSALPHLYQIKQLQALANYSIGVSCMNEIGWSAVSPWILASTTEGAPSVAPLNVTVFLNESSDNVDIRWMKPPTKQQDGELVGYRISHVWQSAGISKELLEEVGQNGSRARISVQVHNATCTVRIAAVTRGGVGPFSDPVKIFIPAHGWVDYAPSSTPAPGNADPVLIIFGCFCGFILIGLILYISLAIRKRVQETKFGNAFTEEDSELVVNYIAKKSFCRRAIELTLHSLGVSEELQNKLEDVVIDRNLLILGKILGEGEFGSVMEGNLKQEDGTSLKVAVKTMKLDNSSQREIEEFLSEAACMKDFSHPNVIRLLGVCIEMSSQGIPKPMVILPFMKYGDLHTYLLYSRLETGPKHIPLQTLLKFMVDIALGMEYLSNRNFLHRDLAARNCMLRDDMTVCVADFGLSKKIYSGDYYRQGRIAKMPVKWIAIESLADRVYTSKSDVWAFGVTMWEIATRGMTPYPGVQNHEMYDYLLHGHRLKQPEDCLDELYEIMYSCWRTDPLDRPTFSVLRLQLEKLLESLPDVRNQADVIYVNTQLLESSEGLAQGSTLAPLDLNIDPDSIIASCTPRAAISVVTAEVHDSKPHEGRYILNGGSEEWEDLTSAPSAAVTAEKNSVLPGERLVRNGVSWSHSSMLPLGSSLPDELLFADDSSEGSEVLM
run description: phosphorylation enrichment, bacterial display (enrichment ratio); higher = better substrate or ligand; peptides without Tyr show the background
Assign rule met to entries whose phosphorylation enrichment meets or exceeds 0.5; assign rule not met to the rest.

biosequence: GPGSGYTNIMR [PKLR_Y564_R559G]
cat: rule not met

biosequence: RTLIRYAKLGN [BEST1_Y131_N133K]
cat: rule met

biosequence: HYECKYVINAI [MAOA_Y268]
cat: rule met

biosequence: ASELGYVFQAI [UROD_Y133]
cat: rule not met

biosequence: LKGIRYLTSGL [PIGA_Y82_R77L]
cat: rule met

biosequence: PHMQTYEVDHN [SDHB_Y61_L65H]
cat: rule not met

biosequence: LRNIDYFRLDG [ATRX_Y2083_YF]
cat: rule met

biosequence: DPLLTYQFPPK [LMNA_Y481_R482Q]
cat: rule met

biosequence: SVICTYSPALN [TP53_Y126_T123I]
cat: rule not met

biosequence: TDKLFYIYTPG [SLC27A4_Y243_S247P]
cat: rule met

biosequence: GISDEYHVIRR [GCDH_Y398_H403R]
cat: rule not met

biosequence: RYVTRYIYNRE [HLA-DQB1_Y62]
cat: rule met

biosequence: FPHVISARLWR [SMAD4_Y95_Y95S]
cat: rule not met

biosequence: SRWKLYPRMLR [HAO1_Y50]
cat: rule not met

biosequence: PSQRCYVYYYS [PTEN_Y174_R173C]
cat: rule met

biosequence: NSRFTYKLEVK [USH2A_Y3747_YF]
cat: rule not met

biosequence: WLFFRYLAIGC [ATP2A2_Y836]
cat: rule not met

biosequence: APTSGYQEFVH [IL4R_Y575]
cat: rule not met

biosequence: PMDTYYDSTRG [DYNC2H1_Y2231]
cat: rule met

biosequence: FGLQAYTKVKT [ALDH2_Y502_E504K_YF]
cat: rule not met

biosequence: FNNPAYYVLEG [INPPL1_Y986]
cat: rule met

biosequence: HKETGYVVERP [BCLAF1_Y466_L461H]
cat: rule not met

biosequence: MSIWPYLQKID [MFSD8_Y63]
cat: rule not met

biosequence: DISEPYEVYRI [IRF8_Y107_K108E]
cat: rule met

biosequence: PVQAAYRKVVA [HBB_Y131_Q132R]
cat: rule not met

biosequence: AEEKEYHAEGG [EGFR_Y869]
cat: rule not met

biosequence: GFAIVYGTIIL [GPR179_Y460]
cat: rule not met

biosequence: QTWKTYVRQQQ [SFI1_Y164]
cat: rule not met

biosequence: LTDTVYSSSSA [OR4C12_Y71_I67T]
cat: rule met

biosequence: SLNAVYPKAGS [OAS3_Y376_R378K]
cat: rule not met

biosequence: HNLPIYEGFAL [ACTA1_Y168_V165L_YF]
cat: rule met

biosequence: PIAPVYAASMV [ACAT1_Y331]
cat: rule met

biosequence: DFLSSYSAVNQ [OAT_Y85]
cat: rule met
